target: Stimulator of interferon genes protein (Homo sapiens, UniProt Q86WV6); experiment: Agonist activity against human STING HAQ variant expressed in THP-1 cells co-expressing ISRE.ISG54 incubated for 18 hrs by luciferase reporter gene assay; format: cell-based
Sequence (Q86WV6 whole entry, looked up, stated change not applied): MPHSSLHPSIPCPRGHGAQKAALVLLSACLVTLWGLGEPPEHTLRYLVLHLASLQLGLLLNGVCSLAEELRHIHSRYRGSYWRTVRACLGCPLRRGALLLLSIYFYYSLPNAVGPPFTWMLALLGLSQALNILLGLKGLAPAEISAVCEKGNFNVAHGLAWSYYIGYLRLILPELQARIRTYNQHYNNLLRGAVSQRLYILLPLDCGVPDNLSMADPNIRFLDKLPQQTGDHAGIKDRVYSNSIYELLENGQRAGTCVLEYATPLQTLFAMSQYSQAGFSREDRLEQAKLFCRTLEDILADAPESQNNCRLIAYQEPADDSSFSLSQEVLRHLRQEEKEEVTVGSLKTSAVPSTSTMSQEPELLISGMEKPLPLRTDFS
MEASURE: pEC50
Convention used: pEC50 is expressed as -log10 of the molar concentration.

q: Look up and state reported pEC50 for C[C@H]1c2ccc(C(=O)NCc3c(F)cc(F)cc3F)cc2N(Cc2c(F)cccc2Cl)C(=O)N1C
a: 6.47

---

assay: Half life in Balb/c mouse at 25 mg/kg, iv measured by LC-MS/MS analysis; type: ADME, organism-based; settings: in vivo
MEASURE: half-life (h)
Number only, in h; omit the unit.

q: Let me know recorded half-life for C[C@H]1c2ccc(C(=O)NCc3c(F)cc(F)cc3F)cc2N(Cc2c(F)cccc2Cl)C(=O)N1C , thanks.
a: 1.4

---

assay: Agonist activity against human STING R232H variant transfected in HEK-293T cells co-expressing ISRE.ISG54 by luciferase reporter gene assay; format: cell-based; details: hek-293t
EC50 vs 0.1 µM: less than gives label 1; not less than gives label 0.

Use these answered entries as a reference point.
Cc1cc(CN2C(=O)N(C)C(C)c3ccc(C(=O)NCc4c(F)cc(F)cc4F)cc32)ccn1 (stereo in doubt; 74)	label 0
CC1c2ccc(C(=O)NCc3c(F)cc(F)cc3F)cc2N(Cc2ccccc2F)C(=O)N1C (stereo in doubt; 98)	label 0
CC1c2ccc(C(=O)NCc3c(F)cc(F)cc3F)cc2N(Cc2c(F)cccc2F)C(=O)N1C (racemic)	label 1

q: Does the reported EC50 of the following compound sit strictly below 0.1 µM? CC1c2ccc(C(=O)NCc3c(F)cc(F)cc3F)cc2N(Cc2cc(F)cc(F)c2)C(=O)N1C (stereo in doubt; 68)
a: label 0

q: Is 0.1 µM strictly greater than the compound's reported EC50? compound: Cc1cc(CN2C(=O)N(C)C(C)c3ccc(C(=O)NCc4c(F)cc(F)cc4F)cc32)ccn1 (racemic)
a: label 0

q: A record lists CC1c2ccc(C(=O)NCc3c(F)cc(F)cc3F)cc2N(Cc2cc(F)cc(F)c2)C(=O)N1C (racemic) . Is its EC50 below 0.1 µM?
a: label 0

q: Determine whether this compound shows EC50 lower than 0.1 µM (ties excluded): CC1c2ccc(C(=O)NCc3c(F)cc(F)cc3F)cc2N(Cc2c(F)cccc2F)C(=O)N1C (stereo in doubt; 72)
a: label 1

---

system: HEK-293T; assay: Agonist activity against human STING R232H variant transfected in HEK-293T cells co-expressing ISRE.ISG54 at 5 uM by luciferase reporter gene assay relative to control; type: cell-based
Active and inactive are the calls of the source. The calls are words filed in the database; no cut-off is given here.
MEASURE: Activity

CN1Cc2ccc(C(=O)NCc3ccc4c(c3)CC(=O)N4)cc2N(Cc2c(F)cccc2Cl)C1=O	2%
CN1Cc2ccc(C(=O)NCc3c(F)cc(F)cc3F)cc2N(Cc2ccnn2C)C1=O	7%
Cn1cnc(N2Cc3ccc(C(=O)NCc4c(F)cc(F)cc4F)cc3N(Cc3c(F)cccc3Cl)C2=O)c1	inactive
CN1Cc2ccc(C(=O)NCc3cccc4c3OCO4)cc2N(Cc2c(F)cccc2Cl)C1=O	4%
CN1Cc2ccc(CNCc3c(F)cc(F)cc3F)cc2N(Cc2c(F)cccc2Cl)C1=O	3%
CN1Cc2ccc(C(=O)NCc3ccc4c(c3)NCCO4)cc2N(Cc2c(F)cccc2Cl)C1=O	inactive
CN1Cc2ccc(C(=O)NCc3cccc(-n4cccn4)c3)cc2N(Cc2c(F)cccc2Cl)C1=O	inactive
CN1Cc2ccc(C(=O)NCc3ccc(N4CCCC4=O)cc3)cc2N(Cc2c(F)cccc2Cl)C1=O	inactive

q: Using the record for Cc1nc(CN2C(=O)N(C)Cc3ccc(C(=O)NCc4c(F)cc(F)cc4F)cc32)co1 , state its measured Activity.
a: 13%
